Consider the following molecules and their measured relative viability readings.
- System: NCI-H1944
- assay: relative viability (nuclei count vs DMSO), 5 days (fraction); higher = more cells survive
- test-settings: first compound 1 µM
Simply state the number, no unit and no words.

Example entries begin here.
{"molecule": "O=c1cc(N2CCOCC2)oc2c(-c3cccc4c3sc3ccccc34)cccc12 + CC1(C)CCC(c2ccc(Cl)cc2)=C(CN2CCN(c3ccc(C(=O)NS(=O)(=O)c4ccc(N[C@H](CCN5CCOCC5)CSc5ccccc5)c(S(=O)(=O)C(F)(F)F)c4)cc3)CC2)C1 [Navitoclax] (partner 0.5 µM)", "relative viability": 1.05}
{"molecule": "O=c1cc(N2CCOCC2)oc2c(-c3cccc4c3sc3ccccc34)cccc12 + O=C(c1cc(Cc2n[nH]c(=O)c3ccccc23)ccc1F)N1CCN(C(=O)C2CC2)CC1 [Olaparib] (partner 8 µM)", "relative viability": 0.393}
{"molecule": "O=c1cc(N2CCOCC2)oc2c(-c3cccc4c3sc3ccccc34)cccc12 + Cc1nc(NC(=O)N2CCC[C@H]2C(N)=O)sc1-c1ccnc(C(C)(C)C(F)(F)F)c1 [Alpelisib] (partner 2 µM)", "relative viability": 0.801}
{"molecule": "O=c1cc(N2CCOCC2)oc2c(-c3cccc4c3sc3ccccc34)cccc12 + NC(=O)Nc1cc(-c2cccc(F)c2)sc1C(=O)N[C@H]1CCCNC1 [AZD7762] (partner 0.2 µM)", "relative viability": 0.438}
{"molecule": "CCN(CC)CCCCNc1ncc2cc(-c3cc(OC)cc(OC)c3)c(NC(=O)NC(C)(C)C)nc2n1 + CS(=O)(=O)N1CCN(Cc2cc3nc(-c4cccc5[nH]ncc45)nc(N4CCOCC4)c3s2)CC1 [Pictilisib] (partner 1 µM)", "relative viability": 0.341}

Specify reported relative viability for the molecule shown: O=c1cc(N2CCOCC2)oc2c(-c3cccc4c3sc3ccccc34)cccc12 + CS(=O)(=O)N1CCN(Cc2cc3nc(-c4cccc5[nH]ncc45)nc(N4CCOCC4)c3s2)CC1 [Pictilisib] (partner 1 µM)
0.35

Return value of relative viability for input CCN(CC)CCCCNc1ncc2cc(-c3cc(OC)cc(OC)c3)c(NC(=O)NC(C)(C)C)nc2n1 + O=C(c1cc(Cc2n[nH]c(=O)c3ccccc23)ccc1F)N1CCN(C(=O)C2CC2)CC1 [Olaparib] (partner 8 µM) , no commentary.
0.394

State its relative viability: O=c1cc(N2CCOCC2)oc2c(-c3cccc4c3sc3ccccc34)cccc12 + Nc1nc2[nH]cc(CCc3ccc(C(=O)N[C@@H](CCC(=O)O)C(=O)O)cc3)c2c(=O)[nH]1 [Pemetrexed] (partner 0.2 µM)
0.635

Check the records and state relative viability for CCN(CC)CCCCNc1ncc2cc(-c3cc(OC)cc(OC)c3)c(NC(=O)NC(C)(C)C)nc2n1 + CCNC(=O)c1noc(-c2cc(C(C)C)c(O)cc2O)c1-c1ccc(CN2CCOCC2)cc1 [Luminespib] (partner 0.01 µM)
0.603

Supply reported relative viability belonging to this molecule: CCN(CC)CCCCNc1ncc2cc(-c3cc(OC)cc(OC)c3)c(NC(=O)NC(C)(C)C)nc2n1 + CC1(C)CCC(c2ccc(Cl)cc2)=C(CN2CCN(c3ccc(C(=O)NS(=O)(=O)c4ccc(N[C@H](CCN5CCOCC5)CSc5ccccc5)c(S(=O)(=O)C(F)(F)F)c4)cc3)CC2)C1 [Navitoclax] (partner 0.5 µM)
1.02
